# IC50 listing for each entry below
system: electrically stimulated mouse vas deferens; test: tissue or blood; format: cell-based; conditions: Mus musculus, read-out: Mouse Vas Deferens IC50 (nM)
Record the value in nM, omitting the unit from your answer.

Here is how some compounds turned out for IC50.
compound="CN1CC[C@]23c4c5ccc(O)c4O[C@H]2[C@@H](O)CC[C@H]3[C@H]1C5 [Dihydromorphine, 7,8-Dihydromorphine]" measurement_target="electrically stimulated mouse vas deferens" reported_value=8.11
compound="Oc1ccc2c3c1O[C@H]1[C@@H](O)C=C[C@H]4[C@@H](C2)NCC[C@@]341 [Normorphine]" measurement_target="electrically stimulated mouse vas deferens" reported_value=512

Please report the recorded IC50 for COc1ccc2c3c1O[C@H]1C(=O)CC[C@@]4(O)[C@@H](C2)N(C)CC[C@]314 [Oxycodone] .
6330

----------
target: kappa receptors (Cavia porcellus, UniProt P41144); construct: The longitudinal muscle with the myenteric plexus attached was gently separated from the underlying circular muscle; from tissue; host or cells: guinea pig ileum longitudinal muscle with myenteric plexus; assay type: cell-based, guinea pig; note: test concentration or dose not given here
Sequence (P41144 whole entry): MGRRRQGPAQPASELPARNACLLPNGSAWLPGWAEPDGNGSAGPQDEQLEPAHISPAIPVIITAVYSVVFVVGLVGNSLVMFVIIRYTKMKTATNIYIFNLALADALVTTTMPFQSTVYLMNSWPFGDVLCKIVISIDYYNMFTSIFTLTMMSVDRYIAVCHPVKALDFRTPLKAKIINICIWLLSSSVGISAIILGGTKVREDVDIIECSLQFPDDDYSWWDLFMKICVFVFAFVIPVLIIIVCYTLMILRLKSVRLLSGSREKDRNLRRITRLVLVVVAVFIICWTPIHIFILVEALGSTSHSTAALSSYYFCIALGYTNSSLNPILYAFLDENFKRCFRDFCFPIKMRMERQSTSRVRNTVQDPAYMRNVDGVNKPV
Property name: Guinea Pig Ileum DR with Nor-BNI

Known results for compounds:
compound="CC(C)C(=O)Oc1ccc2c3c1O[C@H]1[C@@H](OS(=O)(=O)O)C=C[C@H]4[C@@H](C2)N(C)CC[C@@]341 [NIDA # 20,271, 3-O-Isobutyrylmorphine-6-O-sulfate]" property_name="Guinea Pig Ileum DR with Nor-BNI" reported_value="1.38 ± 0.01"
compound="CN1CC[C@]23c4c5ccc(O)c4O[C@H]2[C@@H](OS(=O)(=O)O)C=C[C@H]3[C@H]1C5 [NIDA # 20,266, Morphine-6-O-Sulfate]" property_name="Guinea Pig Ileum DR with Nor-BNI" reported_value="0.87 ± 0.06"

Then there is this compound:
# input compound: C=CCN1CC[C@@]2(C)c3cc(O)ccc3CC1[C@@H]2C.Cl (single isomer, unassigned; (-)) [(−) SKF 10,047-HCl] ; wanted: its Guinea Pig Ileum DR with Nor-BNI
273.10

----------
Property: IC50; scope: individual compounds
tested on: κ2 sites; format: binding, guinea pig

Would you please look over these solved cases?
compound="CN1CC[C@]23c4c5ccc(O)c4O[C@H]2[C@@H](OS(=O)(=O)O)C=C[C@H]3[C@H]1C5 [NIDA # 20,266, Morphine-6-O-Sulfate]" reported_value="> 10 µM"
compound="CC(C)C(=O)Oc1ccc2c3c1O[C@H]1[C@@H](OS(=O)(=O)O)C=C[C@H]4[C@@H](C2)N(C)CC[C@@]341 [NIDA # 20,271, 3-O-Isobutyrylmorphine-6-O-sulfate]" reported_value="> 10 µM"

Next, consider the following compound.
Find the measured IC50: item CC(=O)Oc1ccc2c3c1O[C@H]1[C@@H](OS(=O)(=O)O)C=C[C@H]4[C@@H](C2)N(C)CC[C@@]341 [NIDA # 20,264, 3-O-Acetylmorphine-6-O-sulfate] , target or system κ2 sites.
> 10 µM

----------
tested on: κ2 sites; type: binding, guinea pig
pIC50: −log10 of the molar value. Where a name gives a salt, the structure may show the parent alone.
Property name: pIC50

# query: pIC50 of entry CN1CC[C@]23c4c5ccc(OC(=O)c6ccccc6)c4O[C@H]2[C@@H](OS(=O)(=O)O)C=C[C@H]3[C@H]1C5 [NIDA # 20,273, 3-O-Benzoylmorphine-6-O-sulfate]
< 5.00

Tell me the measured pIC50 of CN1CC[C@]23c4c5ccc(OS(=O)(=O)O)c4O[C@H]2[C@@H](O)C=C[C@H]3[C@H]1C5 [NIDA # 20,268, morphine-3-O-sulfate] , please.
< 5.00

For the molecule shown here, CN1CC[C@]23c4c5ccc(OC(=O)C(C)(C)C)c4O[C@H]2[C@@H](OS(=O)(=O)O)C=C[C@H]3[C@H]1C5 [NIDA # 20,272, 3-O-Pivaloylmorphine-6-O-sulfate] , give the reported pIC50.
< 5.00

I have this molecule here, C=CCN1CC[C@]23c4c5ccc(O)c4O[C@H]2/C(=N/NC(=O)c2ccccc2)CC[C@@]3(O)[C@H]1C5 [NalBzoH, naloxone benzoylhydrazone] , and I need its recorded pIC50.
7.18

Need pIC50, item CCC12CCN(CC3(O)CC3)C(Cc3ccc(O)cc31)C2(C)C (single isomer, unassigned; (-)) [(−)Bremazocine]
8.66

Requested read-out: pIC50. Entry: Oc1ccc2c3c1O[C@H]1c4[nH]c5c(c4C[C@@]4(O)[C@@H](C2)N(CC2CC2)CC[C@]314)C[C@@]1(O)[C@H]2Cc3ccc(O)c4c3[C@@]1(CCN2CC1CC1)[C@H]5O4 [Nor-BNI (HCl)2, nor-binaltorphimine]
7.43

Item under review: CC1C2Cc3ccc(O)cc3C1(C)CCN2CC1CC1 (single isomer, unassigned; (+)) [(+) Cyclazocine] . Reported pIC50?
< 5.00
